B1: FBF1 (parent)
chain: QLQCSPAELQAELLHSQARLAELE

Variants of: B1
Experiment: protein stability index of a GFP-peptide fusion (GPS, HEK-293T) (PSI 1-6); higher = more stable;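 further: lentivirally expressed fusions sorted by FACS into six bins by GFP to DsRed ratio, PSI derived from sequencing read proportions per bin multiplied by bin number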
Conditions: c terminus: a fixed tail appended
As shown below, each of these variants has a reported protein stability index value.
MEASUREMENT_TYPE: protein stability index

> print(dat)
    mutant.id         measurement.type  measurement
 1       H15D  protein stability index         3.28
 2       L20Y  protein stability index         4.12
 3       A18R  protein stability index         3.24
 4       L13I  protein stability index         4.62
 5       L23G  protein stability index         4.71
 6       H15K  protein stability index         3.49
 7        L2C  protein stability index         2.42
 8       Q17F  protein stability index         3.26
 9        C4A  protein stability index         3.99
10        S5Y  protein stability index         3.01
11        A7V  protein stability index         3.07
12       A18Y  protein stability index         2.81
13        P6H  protein stability index         2.19
14       S16L  protein stability index         3.91
15       A11G  protein stability index         4.24

FYI, the data here is from the supplement of paper PMC10567573.
